Can you tell me growth for the items I'm about to list?
# System: NCI/ADR-RES ovarian
# PROCEDURE SUMMARY: NCI-60 one-dose screen, 48 h (100 = growth as untreated, 0 = no growth, -100 = all killed)
# SETUP CONDITIONS: 10 µM unless noted
About 83,000 compounds went through this panel and 20% of them were active in at least one assay; those are over-represented in the sample as a whole.
Number in %, nothing else.

Ask: # returns recorded growth (system: NCI/ADR-RES ovarian) for "COc1ccccc1NC(=O)N/C(N)=N/c1nc2ccccc2s1"
Result: 4.92

Ask: Could you do the same for CCCCCCCCCCCC(c1ccccc1)[N+](C)(C)C (stereo not given) , please?
Result: 91.7

Ask: Next entry: "Cc1cc(NCc2cc(Nc3ccnc4cc(Cl)ccc34)ccc2F)nc(N2CCOCC2)n1"
Result: 25

Ask: Also need "C#CCOc1nc(C)cc(C)c1C#N" , thanks.
Result: 103

Ask: Another: "Clc1cc(Cl)cc(Nc2ccc3cc(OCCCN4CCOCC4)ccc3n2)c1"
Result: 51

Ask: Again, but for "CCN1CCN(c2cc(C)nc(NCc3cc(Nc4ccnc5cc(Cl)ccc45)ccc3F)n2)CC1"
Result: 82.8

Ask: Quick one: "Cc1ccc2nc(NC(=O)CSc3nc(Nc4ccc([N+](=O)[O-])cc4)c(C#N)c(-c4ccccc4)n3)sc2c1"
Result: 95

Ask: Also, "Cc1ccc(Cl)c(NS(=O)(=O)c2ccc(-c3cnc(C4CC4)o3)cc2)c1" please.
Result: 19.5

Ask: Follow-up item: "COc1cc2nc(Cl)nc(Nc3ccc(S(=O)(=O)Nc4nccs4)cc3)c2cc1OC"
Result: 104

Ask: "COc1cccc(-c2nc3sccn3c2/C=C/C(=O)c2ccc(C(F)(F)F)cc2)c1" , same question.
Result: 89.8

* * *

# Test system: 786-0 renal
# PROCEDURE SUMMARY: NCI-60 one-dose screen, 48 h
# SETUP CONDITIONS: 10 µM unless noted
About 83,000 compounds went through this panel and 20% of them were active in at least one assay; those are over-represented in the sample as a whole. The source made the active and inactive calls. How the source made its calls: active means growth percent below 10; inactive means the rest.
Choose one outcome from this list and give only that: yes for active, no for inactive

Ask: Dear all, I need the recorded test outcome for COC(=O)c1ccc(C2Nc3ccc(S(=O)(=O)Nc4ccc(C)c(C)c4)cc3C3OCCC23)cc1 (stereo not given) , thank you.
Result: no

Ask: Another: "CCn1c(C)nc2cc(C(N)=O)ccc21"
Result: no

Ask: Now try "O=C(c1ccccc1)c1c(/C=C/c2ccccc2)nc2ccccc2c1/C=C/c1ccc(Br)cc1" .
Result: no

Ask: Field entry: "COc1ccc2c(c1)O/C(=C/c1ccc(OCC(=O)c3ccccc3)cc1)C2=O"
Result: no

Ask: For "O=c1[nH]ccc2nc(N3CCC(O)CC3)nc(Nc3ccc(N4CCOCC4)cc3)c12" then?
Result: no

Ask: Same question, "COc1ccc(-c2ccc3c(c2)sc2nc(-c4ccc(F)cc4)cn23)cc1" this time
Result: no

Ask: Item: "c1cc2ccc3cc2cc1CNCCOCCNCc1ccc2ccc(cc2c1)CNCCOCCNC3"
Result: no

Ask: Another compound: "Cn1cc(-c2csc(-c3ccccc3)n2)c2cccnc21"
Result: yes

Ask: Entry "C=C(C)[C@@H]1CC=C2c3sc(-c4ccc(C)cc4)nc3C[C@@H](C)[C@]2(C)C1" please
Result: no

Ask: Then "Cc1ccc(Cl)c(NS(=O)(=O)c2ccc(-c3cnc(C4CC4)o3)cc2)c1" ?
Result: no

Ask: Also check "CC/C=C\C/C=C\C[C@H](O)C/C=C1/C(=O)C=C[C@@H]1C/C=C\CCCC(=O)O"
Result: yes

Ask: Item: N#CC1=C(/N=C/c2ccccc2)Oc2c(ccc3ccccc23)C1c1ccccc1 (stereo not given)
Result: no

Ask: Please do the same for CCCCCCCOc1c(OC)cc(C2CC(=O)Nc3c2c(C)nn3-c2nc3ccccc3[nH]2)cc1OC (stereo not given) as well.
Result: yes

Ask: Next compound: "COc1ccc(S(=O)(=O)NCCNc2nccc(-c3c(-c4cccc(F)c4)nc4sccn34)n2)cc1"
Result: no

Ask: Can you handle "COc1ccc(-c2csc(C3=C(O)CN(CCCN4CCCC4=O)C3=N)n2)cc1OC" next?
Result: no

Ask: Try the compound "CN(C)CCCn1c(=O)c2ccccc2c2ccccc21"
Result: no

Ask: Also check "COC(=O)[C@]12CC[C@@H](C)[C@H](C)[C@@H]1C1=CC[C@@H]3[C@@]4(C)C(C=O)=C[C@@](C)(COC(=O)/C=C/c5ccccc5)[C@@H]4[C@H](O)C[C@@]3(C)[C@]1(C)CC2"
Result: yes

Ask: Same read-out for "Cc1ccc(S(=O)(=O)N/N=C\c2cc(Cl)ccc2O)cc1" ?
Result: no

Ask: Try the compound O=c1cc(C2NNC(=S)N2)c2ccc3ccccc3c2o1 (stereo not given)
Result: no

Ask: What do you get for O=[N+]([O-])c1ccc(C2CC(c3ccccc3)=Nc3ccccc3S2)cc1 (stereo not given) ?
Result: no

* * *

# System: M14 melanoma
# PROCEDURE SUMMARY: NCI-60 one-dose screen, 48 h
# SETUP CONDITIONS: 10 µM unless noted
Compounds without any hit were thinned out: in the full panel of roughly 83,000, 20% have a hit. Active and inactive are the calls of the source. Rule for the calls: active = growth percent below 10; inactive = the rest.
The categories you may choose from are label 1 (active), label 0 (inactive)

Ask: State the result this test recorded for "COc1cc(/C=C2\C(=O)ON=C2C)cc(OC)c1OC" .
Result: label 0

Ask: Please do the same for "Cc1cc(N2CCCC2)nc(NCc2cc(Nc3ccnc4cc(Cl)ccc34)ccc2F)n1" as well.
Result: label 1

Ask: Follow-up item: "Cc1cc(NCc2cc(Nc3ccnc4cc(Cl)ccc34)ccc2F)nc(N2CCCC2)n1"
Result: label 1

Ask: // next record "COc1ccc(-c2cc(-c3cc(OC)c(OC)c(OC)c3)c(C#N)c(N3CCOCC3)n2)cc1O"
Result: label 0

Ask: // repeat for "Cn1cc2c(c1)-c1nc(Nc3ccccc3)ncc1CC2" and report
Result: label 0

Ask: One more compound: "CC(=O)c1ccc(NCC(=O)Nc2ccccn2)cc1"
Result: label 0

Ask: Try the compound "Cn1c(-c2c(N)n(Cc3cccnc3)c3nc(C#N)c(C#N)nc23)nc2ccccc21"
Result: label 0

Ask: Another compound: "COc1ccc2oc3c(C)c4c(c(C)c3c2c1)C(=O)N(Cc1ccccc1)C4=O"
Result: label 0

Ask: Now the same for "CCOC(=O)c1c2ncccc2n2c(=O)n(-c3ccccc3C)nnc12"
Result: label 0

Ask: Then "CCN(CC)c1ccc(C(=O)c2ccc(N(CC)CC)cc2)cc1" ?
Result: label 1

* * *

# System: MOLT-4 leukemia
# PROCEDURE SUMMARY: NCI-60 one-dose screen, 48 h
# SETUP CONDITIONS: 10 µM unless noted
Compounds without any hit were thinned out: in the full panel of roughly 83,000, 20% have a hit. Active and inactive are the calls of the source. How the source made its calls: active means growth percent below 10; inactive means the rest.
One label from this list, please: yes for active, no for inactive

Ask: What did the test return for "O=C(Nc1ccccc1-c1nc2ccccc2c(=O)[nH]1)c1cc2ccccc2[nH]1" ?
Result: no

Ask: Now consider "COC(=O)[C@H](CSC)N(C)C(=O)[C@@H]1CSSC[C@@H](NC(=O)c2nc3ccccc3cc2O)C(=O)NCC(=O)N1C" .
Result: no

Ask: Query "COc1ccc(NC(=O)CSc2nc(C)c(C(C)=O)n2-c2ccc([N+](=O)[O-])cc2)cc1" next
Result: no

Ask: Continue with "O=C1CCc2c(sc3[nH]c(=S)n(-c4ccc(OC(F)(F)F)cc4)c(=O)c23)C1"
Result: no

Ask: Check "Cc1cccc(-c2nc(N(C)c3ccc4ncsc4c3)c3ccccc3n2)n1" too.
Result: no

Ask: Same thing, different molecule: "CC(C)(C)c1ccc(/C=C/C(=O)Nc2ccc(O)cc2)cc1"
Result: no

Ask: Likewise for CCCCN(CCCC)CC(C)(C)C(O)c1ccc(OC)c2ccccc12 (stereo not drawn) ?
Result: no

Ask: What would you report for CC(=O)N1N=C(c2ccc(Nc3nc(Nc4ccc(F)cc4)nc(Nc4ccc(F)cc4)n3)cc2)CC1c1cccc([N+](=O)[O-])c1 (stereo not drawn) ?
Result: yes

Ask: Try this molecule too: "C#Cc1cccc(NC(=O)c2ccc(NC(=O)CCl)cc2)c1"
Result: no

Ask: Try "COc1cccc(-c2nc3sccn3c2-c2ccnc(NCCNS(=O)(=O)c3cccc(F)c3)c2)c1" next.
Result: no

Ask: Another molecule to look at: "Cc1nn(-c2ccccc2)c(Oc2ccc(Cl)cc2)c1/C=N\N=c1/sc2ccccc2n1C"
Result: no

Ask: Quick one: "C[C@H]1[C@H]2[C@H]3CC[C@@H]4[C@@]5(C)C/C(=C/c6ccco6)C(=O)C(C)(C)[C@@H]5CC[C@@]4(C)[C@]3(C)CC[C@]23CO[C@]1(C)[C@@H](C(=O)/C=C\c1ccco1)C3"
Result: no

Ask: And "Nc1n[nH]c(-c2cc(Cl)ccc2O)c1-c1ccccc1" ?
Result: no

Ask: Entry to check: Cc1ccc(C2SCC(=O)N2Cc2ccccc2)cc1 (stereo not drawn)
Result: no

Ask: Moving on to "CCOC(=O)c1c(-c2ccc(Cl)cc2)c(C#N)c(=O)n(-c2ccccc2CC)c1N"
Result: no

Ask: Lookup "Cc1ccc(S(=O)(=O)Oc2cc(OS(=O)(=O)c3ccc(C)cc3)cc(OS(=O)(=O)c3ccc(C)cc3)c2)cc1"
Result: no

Ask: Another molecule to check: "COc1cc(N=Nc2cc(Cc3ccc(N(C)C)cc3)c(N)cc2N(C)C)c2ncccc2c1"
Result: yes

Ask: Please answer likewise for N#Cc1c2c(nn(-c3ccccc3)c1=O)C(O)=C([N+](=O)[O-])C(c1ccccc1)C2 (stereo not drawn)
Result: no
